target: BTK-GFP (Homo sapiens, UniProt Q06187+Q96SW2); construct: the BTK open reading frame (ORF) was first shuttled from a pcDNA-DEST40-BTK vector (Invitrogen library ID INV_20090504v1); expressed in transfected cells; host or cells: HEK293A cells (Invitrogen R70507), lentiviral transduction with pLenti6-BTK-GFP-Ires-RFP, blasticidin-selected; assay: BTK-GFP protein abundance flow cytometry assay in HEK293A cells; format: cell-based; details: 24 h, concentration at which 50% maximal degradation was observed
Sequence (Q06187 whole entry): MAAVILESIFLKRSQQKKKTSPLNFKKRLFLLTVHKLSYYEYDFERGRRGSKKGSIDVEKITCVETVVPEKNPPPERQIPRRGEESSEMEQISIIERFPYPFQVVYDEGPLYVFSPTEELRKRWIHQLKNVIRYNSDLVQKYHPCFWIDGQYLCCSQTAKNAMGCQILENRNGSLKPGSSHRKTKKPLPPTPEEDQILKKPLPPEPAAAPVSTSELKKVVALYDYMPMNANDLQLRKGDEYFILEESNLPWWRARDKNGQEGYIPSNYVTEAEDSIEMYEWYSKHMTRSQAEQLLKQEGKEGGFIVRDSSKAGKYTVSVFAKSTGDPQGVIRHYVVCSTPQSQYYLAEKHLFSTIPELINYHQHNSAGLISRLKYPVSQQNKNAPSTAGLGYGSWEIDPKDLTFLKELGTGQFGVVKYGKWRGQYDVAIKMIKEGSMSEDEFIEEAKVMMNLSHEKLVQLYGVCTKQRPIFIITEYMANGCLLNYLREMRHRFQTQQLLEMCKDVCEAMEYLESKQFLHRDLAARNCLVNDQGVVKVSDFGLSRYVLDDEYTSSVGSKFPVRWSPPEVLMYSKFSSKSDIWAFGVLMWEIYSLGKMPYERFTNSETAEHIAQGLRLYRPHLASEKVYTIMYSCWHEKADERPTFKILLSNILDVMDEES
Sequence (Q96SW2 whole entry): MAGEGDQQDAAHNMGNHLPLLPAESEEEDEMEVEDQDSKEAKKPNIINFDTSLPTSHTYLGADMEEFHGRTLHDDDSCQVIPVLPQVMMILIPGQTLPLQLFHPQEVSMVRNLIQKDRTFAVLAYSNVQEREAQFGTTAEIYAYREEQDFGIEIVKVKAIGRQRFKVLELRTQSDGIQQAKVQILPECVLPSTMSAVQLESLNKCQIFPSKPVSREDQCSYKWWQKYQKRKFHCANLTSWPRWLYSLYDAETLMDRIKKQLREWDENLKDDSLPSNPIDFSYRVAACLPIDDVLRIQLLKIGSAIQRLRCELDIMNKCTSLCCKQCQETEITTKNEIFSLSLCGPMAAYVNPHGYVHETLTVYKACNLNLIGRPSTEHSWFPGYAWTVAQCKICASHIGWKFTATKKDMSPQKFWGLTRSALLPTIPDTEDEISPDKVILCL
Sequence (Q16531 whole entry partner): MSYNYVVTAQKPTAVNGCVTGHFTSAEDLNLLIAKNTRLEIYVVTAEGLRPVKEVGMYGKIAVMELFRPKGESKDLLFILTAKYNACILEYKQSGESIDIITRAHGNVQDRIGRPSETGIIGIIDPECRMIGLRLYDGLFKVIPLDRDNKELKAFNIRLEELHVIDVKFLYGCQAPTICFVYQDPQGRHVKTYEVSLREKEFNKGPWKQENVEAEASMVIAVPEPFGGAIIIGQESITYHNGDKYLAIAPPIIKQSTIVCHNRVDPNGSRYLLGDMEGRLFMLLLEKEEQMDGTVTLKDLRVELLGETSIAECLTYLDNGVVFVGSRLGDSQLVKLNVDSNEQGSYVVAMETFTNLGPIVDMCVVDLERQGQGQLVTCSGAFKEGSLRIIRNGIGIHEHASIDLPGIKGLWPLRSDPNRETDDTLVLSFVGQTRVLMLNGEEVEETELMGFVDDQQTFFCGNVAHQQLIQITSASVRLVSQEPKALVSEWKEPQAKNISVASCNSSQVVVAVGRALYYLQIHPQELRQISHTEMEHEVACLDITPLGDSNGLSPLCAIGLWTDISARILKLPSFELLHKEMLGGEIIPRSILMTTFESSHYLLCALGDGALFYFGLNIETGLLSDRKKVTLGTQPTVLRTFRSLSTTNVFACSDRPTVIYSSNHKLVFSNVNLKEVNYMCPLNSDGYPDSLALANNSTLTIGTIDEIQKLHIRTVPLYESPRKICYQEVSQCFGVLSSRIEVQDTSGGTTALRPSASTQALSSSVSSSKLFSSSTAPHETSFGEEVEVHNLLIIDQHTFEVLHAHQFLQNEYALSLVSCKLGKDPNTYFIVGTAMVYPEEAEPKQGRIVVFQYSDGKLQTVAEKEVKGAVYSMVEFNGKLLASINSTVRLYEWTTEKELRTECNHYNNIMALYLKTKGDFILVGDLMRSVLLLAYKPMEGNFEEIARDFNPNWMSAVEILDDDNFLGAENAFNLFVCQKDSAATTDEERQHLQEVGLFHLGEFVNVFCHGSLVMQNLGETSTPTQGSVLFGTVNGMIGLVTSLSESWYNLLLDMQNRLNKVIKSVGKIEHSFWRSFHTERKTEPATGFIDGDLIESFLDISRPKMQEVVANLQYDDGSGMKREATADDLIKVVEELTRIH
Criterion: DC50 strictly less than 1 nM. Met: y. Not met: n.

molecule: COc1ccc(C(=O)N2CCC3(CCN(Cc4ccc(-c5cc6c(-c7cc(F)cc(NC(=O)N8C[C@@H](CC(C)C)[C@H](O)C8)c7C)ncnc6[nH]5)cc4)CC3)CC2)cc1N1CCC(=O)NC1=O (racemic) [Compound 5]
tgt: BTK-GFP (Homo sapiens, UniProt Q06187+Q96SW2)
assigned category: n

molecule: COc1ccc(C(=O)N2CCC(CN3CCN(Cc4ccc(-c5cc6c(-c7cc(F)cc(NC(=O)N8CC(O)C(CC(C)C)C8)c7C)ncnc6[nH]5)cc4)CC3)CC2)cc1N1CCC(=O)NC1=O (racemic)
tgt: BTK-GFP (Homo sapiens, UniProt Q06187+Q96SW2)
assigned category: n

molecule: COc1ccc(C(=O)N2CCC3(CCN(Cc4ccc(-c5cc6c(-c7cc(F)cc(NC(=O)N8CC(O)C(CC(C)C)C8)c7C)ncnc6[nH]5)cc4)CC3)CC2)cc1N1CCC(=O)NC1=O (racemic)
tgt: BTK-GFP (Homo sapiens, UniProt Q06187+Q96SW2)
assigned category: n

molecule: COc1ccc(C(=O)N2CCC(CCN3CCC(OCc4ccc(-c5cc6c(-c7cc(F)cc(NC(=O)N8C[C@@H](CC(C)C)[C@H](O)C8)c7C)ncnc6[nH]5)cc4)CC3)CC2)cc1N1CCC(=O)NC1=O
tgt: BTK-GFP (Homo sapiens, UniProt Q06187+Q96SW2)
assigned category: n

molecule: CCOc1ccc(C(=O)N2CCC3(CCN(CCc4ccc(-c5cc6c(-c7cc(F)cc(NC(=O)N8C[C@H](CC(C)C)[C@@H](O)C8)c7C)ncnc6[nH]5)cc4)CC3)CC2)cc1N1CCC(=O)NC1=O
tgt: BTK-GFP (Homo sapiens, UniProt Q06187+Q96SW2)
assigned category: n

molecule: COc1ccc(C(=O)N2CCC(CN3CCC(Oc4ccc(-c5cc6c(-c7cc(F)cc(NC(=O)N8C[C@H](CC(C)C)[C@@H](O)C8)c7C)ncnc6[nH]5)cc4)CC3)CC2)cc1N1CCC(=O)NC1=O
tgt: BTK-GFP (Homo sapiens, UniProt Q06187+Q96SW2)
assigned category: y

molecule: COc1ccc(C(=O)N2CCC(CCN3CCC(Oc4ccc(-c5cc6c(-c7cc(F)cc(NC(=O)N8C[C@H](CC(C)C)[C@@H](O)C8)c7C)ncnc6[nH]5)cc4)CC3)CC2)cc1N1CCC(=O)NC1=O
tgt: BTK-GFP (Homo sapiens, UniProt Q06187+Q96SW2)
assigned category: y

molecule: COc1ccc(C(=O)N2CCC(CN3CCC(COc4ccc(-c5cc6c(-c7cc(F)cc(NC(=O)N8C[C@H](CC(C)C)[C@@H](O)C8)c7C)ncnc6[nH]5)cc4)CC3)CC2)cc1N1CCC(=O)NC1=O
tgt: BTK-GFP (Homo sapiens, UniProt Q06187+Q96SW2)
assigned category: y
